Test system: human PKK mRNA
Test: Antisense inhibition of human PKK mRNA in HepaRG cells, 3,000 nM (Example 1)
Assay type: cell-based
Settings: Table 4; HepaRG cells, electroporation with 3,000 nM antisense oligonucleotide, approx. 24 hours; PKK mRNA by RT-PCR (RTS3454), relative to untreated control cells
Strand notation (5' to 3'): a small letter for the sugar, then the base; units joined by * are phosphorothioate-linked, units joined directly phosphodiester-linked; [ ] holds rarer units or linkages, { } end groups; capitals alone tell only the bases. e = 2'-O-(2-methoxyethyl) (MOE); [5mC] = 5-methylcytosine; d = 2'-deoxy (DNA)
For each record, write down the corresponding % inhibition.
Show the value, then the unit it is measured in.

Entry 531185 (antisense eG*eG*eA*e[5mC]*e[5mC]*dA*dA*dA*dA*d[5mC]*dT*dG*dA*dG*dA*eG*eG*e[5mC]*eA*eG) [compound 531185] has what % inhibition?
63%

Next: 531207 (e[5mC]*e[5mC]*eA*e[5mC]*eT*dT*dA*dT*dT*dT*dG*dA*dT*dG*dA*e[5mC]*e[5mC]*eA*e[5mC]*eA; antisense) [compound 531207]
64%

Next: 531173 (antisense eA*eA*eA*eA*eT*dA*dA*d[5mC]*dT*dT*d[5mC]*dA*d[5mC]*dT*dA*eG*eA*eG*e[5mC]*eT) [compound 531173]
22%

Next: 531203 (eT*eG*eA*e[5mC]*eT*dA*dT*d[5mC]*d[5mC]*dA*dA*dT*dT*dT*d[5mC]*eT*eA*eG*eT*eT; antisense) [compound 531203]
67%

Data origin, for the record: patent US11840686B2
